Source: the supplement of paper PMC11208160

- measurementNotes: recombinant barcode read abundance after kanamycin selection (control-corrected) (log10(CPM+1)); higher = more efficient recombination; sequences stand for … in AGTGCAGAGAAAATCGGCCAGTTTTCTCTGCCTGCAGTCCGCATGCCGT…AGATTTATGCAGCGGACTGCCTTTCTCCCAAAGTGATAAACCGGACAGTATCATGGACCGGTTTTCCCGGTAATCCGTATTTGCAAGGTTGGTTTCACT; site = the 11-nt target;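 note: IS621 recombinase and bridge RNA in Escherichia coli cells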
quantityMeasured: recombinant barcode read abundance (log10)
Form rule: numeric answer, no unit written next to it.

{"sequenceInput": "GCGGGGTCTTGGGTTCTAACCTGTTGCTT (site GCGGGGTCTAA)", "valueMeasured": 2.2}

Which recombinant barcode read abundance (log10) is reported for this sequence? CTAAAAGCTTGGGTTCTAACCTGTTGCCA (site CTAAAAGCTTG) 0.493

Which recombinant barcode read abundance (log10) is reported for this sequence? TAATGTACTTGGGTTCTAACCTGTTGCTT (site TAACGTACTAA) 0.0626

Which recombinant barcode read abundance (log10) is reported for this sequence? ATGGGTCCTTGGGTTCTAACCTGTTGCCT (site ATCGGTCCTAG) 0.0834

Which recombinant barcode read abundance (log10) is reported for this sequence? AATGGGACTTGGGTTCTAACCTGTTGCCT (site AATGGGACTAG) 1.72

Which recombinant barcode read abundance (log10) is reported for this sequence? TCGGGGTCTTGGGTTCTAACCTGTTGCCT (site ACGGGGTCTAG) 1.23

Which recombinant barcode read abundance (log10) is reported for this sequence? AAATTGACTTGGGTTCTAACCTGTTGCCT (site AACTTGACTAG) 0.136
